# TARGET UNDER TEST: UniProt P04150
# Sequence (P04150 whole entry): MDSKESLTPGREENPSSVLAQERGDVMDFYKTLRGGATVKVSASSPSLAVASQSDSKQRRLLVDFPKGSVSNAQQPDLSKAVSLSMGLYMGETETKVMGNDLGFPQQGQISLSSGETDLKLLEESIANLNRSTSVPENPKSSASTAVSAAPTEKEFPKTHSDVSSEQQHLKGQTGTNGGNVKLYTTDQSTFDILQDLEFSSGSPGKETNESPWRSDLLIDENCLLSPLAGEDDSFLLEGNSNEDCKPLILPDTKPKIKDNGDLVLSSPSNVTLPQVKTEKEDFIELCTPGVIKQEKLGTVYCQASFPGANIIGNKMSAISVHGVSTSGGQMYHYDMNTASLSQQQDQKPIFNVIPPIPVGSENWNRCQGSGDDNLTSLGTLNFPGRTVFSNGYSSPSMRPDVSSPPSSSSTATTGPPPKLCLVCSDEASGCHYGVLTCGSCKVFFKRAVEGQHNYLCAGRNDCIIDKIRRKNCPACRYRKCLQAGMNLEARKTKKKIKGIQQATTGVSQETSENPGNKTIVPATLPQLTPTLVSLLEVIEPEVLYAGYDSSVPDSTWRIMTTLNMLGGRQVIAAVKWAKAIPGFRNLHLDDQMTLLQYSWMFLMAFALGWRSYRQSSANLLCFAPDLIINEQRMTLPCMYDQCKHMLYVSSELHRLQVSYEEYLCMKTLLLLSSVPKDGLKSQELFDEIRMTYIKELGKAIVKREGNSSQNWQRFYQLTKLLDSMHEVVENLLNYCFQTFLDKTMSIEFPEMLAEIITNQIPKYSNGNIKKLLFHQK
ENDPOINT: AC50

O=C(O)CCNC(=O)c1ccc(/N=N/c2ccc(O)c(C(=O)O)c2)cc1 [BALSALAZIDE]	> 30 µM

API: value(readout=AC50, system=UniProt P04150) for record Cc1ccccc1N1C(=O)c2cc(S(N)(=O)=O)c(Cl)cc2NC1C (stereo not given)
> 10 µM

API: value(readout=AC50, system=UniProt P04150) for record NNC(=O)c1ccncc1
> 30 µM

API: value(readout=AC50, system=UniProt P04150) for record CCC(NC(C)C)C(O)c1ccc(O)c2[nH]c(=O)ccc12 (stereo not given)
> 30 µM

API: value(readout=AC50, system=UniProt P04150) for record CC(C)(Oc1ccc(CCNC(=O)c2ccc(Cl)cc2)cc1)C(=O)O [BEZAFIBRATE]
> 10 µM

* * *

The listing below reports AC50 for compounds tested on 5-hydroxytryptamine receptor 2C (Homo sapiens). Note: assay procedure not described here.
Sequence (P28335 whole entry): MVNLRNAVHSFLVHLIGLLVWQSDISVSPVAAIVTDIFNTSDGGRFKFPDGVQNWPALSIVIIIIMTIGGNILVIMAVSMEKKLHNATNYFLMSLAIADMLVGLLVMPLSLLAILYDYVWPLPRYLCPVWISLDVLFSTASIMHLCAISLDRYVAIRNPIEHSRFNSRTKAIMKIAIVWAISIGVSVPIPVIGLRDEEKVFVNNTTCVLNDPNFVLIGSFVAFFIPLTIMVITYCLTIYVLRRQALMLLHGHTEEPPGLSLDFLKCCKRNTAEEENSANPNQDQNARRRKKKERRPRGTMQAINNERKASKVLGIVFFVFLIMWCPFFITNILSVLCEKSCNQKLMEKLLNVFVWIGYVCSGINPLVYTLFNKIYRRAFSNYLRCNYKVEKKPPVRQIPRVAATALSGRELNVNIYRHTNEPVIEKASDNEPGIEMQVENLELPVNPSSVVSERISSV

Here's what some known entries look like.
OC[C@H]1O[C@@H](n2cnc3c2NC=NC[C@H]3O)C[C@@H]1O	> 10 µM
CCc1nc(N)nc(N)c1-c1ccc(Cl)cc1	> 30 µM
CC(C)[C@H](N)C(=O)OCCOCn1cnc2c(=O)[nH]c(N)nc21	> 30 µM
O=C(NCCO[N+](=O)[O-])c1cccnc1	> 30 µM
CC(C)Cc1ccc([C@H](C)C(=O)O)cc1	> 30 µM
CCCC(C)(COC(N)=O)COC(N)=O [MEPROBAMATE]	> 30 µM

API: value(readout=AC50, system=5-hydroxytryptamine receptor 2C (Homo sapiens)) for record CCCN(CCC)S(=O)(=O)c1ccc(C(=O)O)cc1; note: assay procedure not described here
> 30 µM

API: value(readout=AC50, system=5-hydroxytryptamine receptor 2C (Homo sapiens)) for record CCOC(=O)c1c(CSc2ccccc2)n(C)c2cc(Br)c(O)c(CN(C)C)c12; note: assay procedure not described here
2.6 µM

API: value(readout=AC50, system=5-hydroxytryptamine receptor 2C (Homo sapiens)) for record CN[C@]1(c2ccccc2Cl)CCCCC1=O; note: assay procedure not described here
> 30 µM

API: value(readout=AC50, system=5-hydroxytryptamine receptor 2C (Homo sapiens)) for record CCCc1cc(=O)[nH]c(=S)[nH]1; note: assay procedure not described here
> 30 µM

* * *

The listing below reports AC50 for molecules tested on Glutamate receptor ionotropic, NMDA 1 (Rattus norvegicus, UniProt P35439). Note: assay procedure not described here.

Here's what some known entries look like.
O=C(/C=C/c1cccc(S(=O)(=O)Nc2ccccc2)c1)NO	> 10 µM
Cc1cc(C)nc(NS(=O)(=O)c2ccc(N)cc2)n1	> 10 µM
CCCNC(=O)NS(=O)(=O)c1ccc(Cl)cc1 [CHLORPROPAMIDE]	> 10 µM
CCC[C@@H]1C[C@@H](C(=O)N[C@@H]([C@H]2O[C@H](SC)[C@H](O)[C@@H](O)[C@H]2O)[C@@H](C)O)N(C)C1	> 10 µM
CC(C)NC(=N)NC(=N)Nc1ccc(Cl)c(Cl)c1	> 30 µM
Cc1cccc(C)c1NC(=O)CC12CCCN1CCC2 [PILSICAINIDE]	> 30 µM
O=c1[nH]c2ccccc2n1CCCN1CCN(C(c2ccccc2)c2ccccc2)CC1 [OXATOMIDE]	> 30 µM
CC=CC1=C(C(=O)O)N2C(=O)[C@@H](NC(=O)[C@H](N)c3ccc(O)cc3)[C@H]2SC1	> 30 µM
CN(CCOc1ccc(CC2SC(=O)NC2=O)cc1)c1ccccn1 (stereo unspecified)	> 30 µM
CC(Cc1cccc(C(F)(F)F)c1)NCCOC(=O)c1ccccc1 (stereo unspecified)	> 30 µM

API: value(readout=AC50, system=Glutamate receptor ionotropic, NMDA 1 (Rattus norvegicus, UniProt P35439)) for record CCOC(=O)C1=C(C)NC(C)=C(C(=O)OCC)C1c1ccccc1/C=C/C(=O)OC(C)(C)C; note: assay procedure not described here
> 30 µM

API: value(readout=AC50, system=Glutamate receptor ionotropic, NMDA 1 (Rattus norvegicus, UniProt P35439)) for record CC(=O)O[C@]1(C(C)=O)CC[C@H]2[C@@H]3C=C(Cl)C4=CC(=O)[C@@H]5C[C@@H]5[C@]4(C)[C@H]3CC[C@@]21C [CYPROTERONE ACETATE]; note: assay procedure not described here
> 10 µM

* * *

# TARGET UNDER TEST: Voltage-gated inwardly rectifying potassium channel KCNH2 (Homo sapiens, UniProt Q12809); note: assay procedure not described here
# Sequence (Q12809 whole entry): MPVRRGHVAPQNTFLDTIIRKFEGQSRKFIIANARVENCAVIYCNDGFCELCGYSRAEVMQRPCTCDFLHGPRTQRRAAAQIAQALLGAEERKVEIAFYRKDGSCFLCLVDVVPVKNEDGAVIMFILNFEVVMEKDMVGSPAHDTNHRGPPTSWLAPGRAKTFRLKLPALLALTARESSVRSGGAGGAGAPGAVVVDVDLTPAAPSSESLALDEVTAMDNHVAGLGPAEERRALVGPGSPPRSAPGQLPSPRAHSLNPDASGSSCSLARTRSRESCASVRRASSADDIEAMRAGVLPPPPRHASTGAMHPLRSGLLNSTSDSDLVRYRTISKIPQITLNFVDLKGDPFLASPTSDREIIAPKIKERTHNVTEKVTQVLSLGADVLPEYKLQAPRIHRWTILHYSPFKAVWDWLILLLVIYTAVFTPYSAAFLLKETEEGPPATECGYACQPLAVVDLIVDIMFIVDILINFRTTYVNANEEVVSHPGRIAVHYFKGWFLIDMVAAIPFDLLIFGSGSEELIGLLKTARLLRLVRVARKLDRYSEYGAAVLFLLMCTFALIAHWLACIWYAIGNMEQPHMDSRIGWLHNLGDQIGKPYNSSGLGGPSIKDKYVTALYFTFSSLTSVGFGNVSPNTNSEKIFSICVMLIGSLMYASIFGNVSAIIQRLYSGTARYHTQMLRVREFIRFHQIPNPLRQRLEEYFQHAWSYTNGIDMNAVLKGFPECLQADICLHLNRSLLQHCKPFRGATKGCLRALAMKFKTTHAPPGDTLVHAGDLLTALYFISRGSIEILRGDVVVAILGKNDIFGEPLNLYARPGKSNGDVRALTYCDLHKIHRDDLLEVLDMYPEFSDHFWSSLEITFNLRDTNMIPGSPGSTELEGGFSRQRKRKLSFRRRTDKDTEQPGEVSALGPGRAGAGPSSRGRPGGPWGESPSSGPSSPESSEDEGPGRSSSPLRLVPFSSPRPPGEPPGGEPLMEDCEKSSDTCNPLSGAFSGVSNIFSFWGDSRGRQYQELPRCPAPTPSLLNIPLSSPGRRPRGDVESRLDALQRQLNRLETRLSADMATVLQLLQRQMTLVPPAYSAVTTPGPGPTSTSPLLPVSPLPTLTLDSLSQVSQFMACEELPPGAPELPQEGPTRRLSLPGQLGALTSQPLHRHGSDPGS
# Format: functional
Quick reference: AC50 of the listed items.
All answers are understood in µM, so give the number only.

CCN1CC(CCN2CCOCC2)C(c2ccccc2)(c2ccccc2)C1=O (stereo not given)	10.5

Consider the record given below.
Which AC50 value is on record for CC[N+](C)(CC)CCOC(=O)C(O)(c1ccccc1)C1CCCCC1 (stereo not given) ?
14

* * *

The listing below reports AC50 for compounds tested on Thromboxane A2 receptor (Homo sapiens, UniProt P21731). Note: assay procedure not described here.
Sequence (P21731 whole entry): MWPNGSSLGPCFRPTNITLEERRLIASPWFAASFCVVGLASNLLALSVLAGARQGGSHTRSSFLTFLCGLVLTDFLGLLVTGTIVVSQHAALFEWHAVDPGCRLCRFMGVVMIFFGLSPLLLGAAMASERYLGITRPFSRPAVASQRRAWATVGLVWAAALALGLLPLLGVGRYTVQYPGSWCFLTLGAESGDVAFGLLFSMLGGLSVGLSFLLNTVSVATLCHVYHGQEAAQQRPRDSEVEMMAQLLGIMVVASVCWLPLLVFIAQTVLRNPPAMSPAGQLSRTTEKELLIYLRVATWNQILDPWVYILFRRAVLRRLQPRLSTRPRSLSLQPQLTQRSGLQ

CC[C@@H](CO)NC(=O)[C@@H]1C=C2c3cccc4c3c(cn4C)C[C@H]2N(C)C1 [METHYSERGIDE]	24.5 µM

Which AC50 value is on record for CCc1cc2c(s1)-n1c(C)nnc1CN=C2c1ccccc1Cl [ETIZOLAM] ?
> 30 µM

Which AC50 value is on record for O=c1[nH]c2ccccc2n1CCCN1CCN(C(c2ccccc2)c2ccccc2)CC1 [OXATOMIDE] ?
> 30 µM

Which AC50 value is on record for O=C(O)Cc1ccccc1Oc1ccc(Cl)cc1Cl [FENCLOFENAC] ?
> 30 µM

Which AC50 value is on record for CC(C)NC[C@H](O)COc1ccc(CC(N)=O)cc1 [ESATENOLOL] ?
> 30 µM

* * *

Quick reference: AC50 of the listed items.
# TARGET UNDER TEST: UniProt P32238
# Sequence (P32238 whole entry): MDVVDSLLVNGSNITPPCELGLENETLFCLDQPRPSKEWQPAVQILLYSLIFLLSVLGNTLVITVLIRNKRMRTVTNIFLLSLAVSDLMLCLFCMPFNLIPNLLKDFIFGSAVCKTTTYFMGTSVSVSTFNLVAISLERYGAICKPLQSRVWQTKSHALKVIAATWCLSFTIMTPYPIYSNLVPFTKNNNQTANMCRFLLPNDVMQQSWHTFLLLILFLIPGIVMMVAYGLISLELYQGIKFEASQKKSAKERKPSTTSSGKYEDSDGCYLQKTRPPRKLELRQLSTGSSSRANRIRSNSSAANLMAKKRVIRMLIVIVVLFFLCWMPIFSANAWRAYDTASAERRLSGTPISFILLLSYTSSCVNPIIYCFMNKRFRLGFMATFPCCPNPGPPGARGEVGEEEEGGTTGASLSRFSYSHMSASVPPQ

O=C(O)Cc1ccccc1Oc1ccc(Cl)cc1Cl	> 30 µM
Clc1ccc(Cn2c(CN3CCCC3)nc3ccccc32)cc1	> 30 µM
CN1CCN=C(c2ccccc2)c2cc(Cl)ccc21	> 30 µM
CC1(C)S[C@@H]2[C@H](NC(=O)C(C(=O)O)c3ccccc3)C(=O)N2[C@H]1C(=O)O (stereo partly drawn)	> 30 µM
CN(C)C/C=C/C(=O)Nc1cc2c(Nc3ccc(F)c(Cl)c3)ncnc2cc1O[C@H]1CCOC1	11 µM

API: value(readout=AC50, system=UniProt P32238) for record CO/N=C(\C(=O)N[C@@H]1C(=O)N2C(C(=O)O)=C(CSc3nc(=O)c(=O)[nH]n3C)CS[C@H]12)c1csc(N)n1
> 30 µM

API: value(readout=AC50, system=UniProt P32238) for record CC[C@H](C)C(=O)O[C@H]1C[C@@H](C)C=C2C=C[C@H](C)[C@H](CC[C@@H]3C[C@@H](O)CC(=O)O3)[C@H]21
> 30 µM

API: value(readout=AC50, system=UniProt P32238) for record CC(C)N(CCCCOCC(=O)O)c1cnc(-c2ccccc2)c(-c2ccccc2)n1
> 10 µM

* * *

Quick reference: AC50 of the listed items.
# TARGET UNDER TEST: Estrogen receptor (Homo sapiens, UniProt P03372); note: assay procedure not described here
# Sequence (P03372 whole entry): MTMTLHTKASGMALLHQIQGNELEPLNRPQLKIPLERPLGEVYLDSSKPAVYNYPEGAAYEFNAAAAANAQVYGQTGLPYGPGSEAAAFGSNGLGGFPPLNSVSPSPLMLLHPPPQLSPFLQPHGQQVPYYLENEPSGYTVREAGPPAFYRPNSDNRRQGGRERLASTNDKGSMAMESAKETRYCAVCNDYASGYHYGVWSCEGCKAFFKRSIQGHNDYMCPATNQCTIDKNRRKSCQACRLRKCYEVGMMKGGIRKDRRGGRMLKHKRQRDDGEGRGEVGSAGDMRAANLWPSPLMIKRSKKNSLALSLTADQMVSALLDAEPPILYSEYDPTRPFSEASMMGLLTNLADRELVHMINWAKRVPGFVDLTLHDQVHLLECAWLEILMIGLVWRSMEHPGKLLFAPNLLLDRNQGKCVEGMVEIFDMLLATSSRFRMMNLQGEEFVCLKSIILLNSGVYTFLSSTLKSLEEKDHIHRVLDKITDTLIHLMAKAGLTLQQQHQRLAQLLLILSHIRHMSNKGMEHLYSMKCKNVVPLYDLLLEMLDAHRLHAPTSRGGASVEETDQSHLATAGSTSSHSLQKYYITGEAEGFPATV

Here's what some known entries look like.
CCOC(=O)c1c(CSc2ccccc2)n(C)c2cc(Br)c(O)c(CN(C)C)c12	> 30 µM
CC[C@@H](CO)NC(=O)[C@@H]1C=C2c3cccc4c3c(cn4C)C[C@H]2N(C)C1 [METHYSERGIDE]	> 10 µM

Which AC50 value is on record for O=C(O)c1ccc(NC(=O)[C@H](Cc2ccc(O)cc2)NC(=O)c2ccccc2)cc1 [BENTIROMIDE] ?
> 10 µM

Which AC50 value is on record for CN[C@]1(c2ccccc2Cl)CCCCC1=O ?
> 30 µM

Which AC50 value is on record for CC(C(=O)O)c1ccc2c(c1)CC(=O)c1ccccc1S2 (stereo not given) ?
> 30 µM

Which AC50 value is on record for C/C=C(/C(=C/C)c1ccc(O)cc1)c1ccc(O)cc1 ?
0.0035 µM

Which AC50 value is on record for O=C(CCCN1CCC(O)(c2ccc(Br)cc2)CC1)c1ccc(F)cc1 ?
> 30 µM

Which AC50 value is on record for Oc1ccc(CCNCCCCCCNCCc2ccccc2)cc1O ?
> 30 µM

Which AC50 value is on record for CC(C)(C)NCC(O)c1ccccc1Cl (stereo not given) ?
> 30 µM

Which AC50 value is on record for CC(CN(C)C)C(C)(O)Cc1ccc(Cl)cc1 (stereo not given) ?
> 30 µM
